Hello, the source for this data is patent US20240218057A1, in case you need it.

Below, each of the binders is paired with its reported EC50 value.
experimental.system: T1, SARS-COV-2 RBD (SARS-COV-2, UniProt P0DTC2 319-539)
T1 construct: also called WT RBD
protocol: ELISA, RBD coated
Supply the numeric figure in ng/mL, leaving out any unit text.

INPUT: Request the reported EC50 associated with C971 (antibody, V domains shown, IgG; V domains only) VH: EVQLVESGGGLVKPGGSLRLSCAASGFTFNNAWMTWVRQAPGKGLEWVGRIKSKTDGGTTDYGTPAKGRFTISRDDSKNTLYLQMKSLRTEDTAVYYCTTVDVQGIWELLENDAFDIWGQGTMVTVSS VL: EIVLTQSPGTLSLSPGERATLSCRATQAISSTYLAWYQQKPGQAPRLLIYGAFSRAPGIPDRFSGSGSETDFTLTISRLEPEDFAVYYCQQSDRSPFTFGPGTKVDIK
OUTPUT: 2.21

Further cases:
INPUT: Request the reported EC50 associated with C952 (antibody, V domains shown, IgG; V domains only) VH: EVQLVQSGAEVKKPGESLTISCKDSGNSFTIYWIGWVRQMPGKGLEWMGMIYPGDSGTRYSPSFEGQVTISADESINTAYLQWRSLKASDTAMYYCVRGIAVDWYFDLWGRGTLVTVSS VL: QSVLTQPPSVSGAPGQRVTISCTGSSSNIGAGFDVHWYQQLPGTAPKLLIYGNNNRPSGVPDRFSGSKSATSASLAITGLQAEDEADYYCQSSDSSLSGLYVFGTGTNVIV
OUTPUT: 2.4
